Provide the reported Int. GSH % con. of each item.
System: HL-60 cells
Assay: Intracellular GSH levels by HPLC-EC in HL-60 cells
Type: cell-based, human
Details: HL-60, 75 μM, 24 hours treatment
Answers are plain numbers, in % con..

Solved entries:
O=c1c(O)c(-c2cc(O)c(O)c(O)c2)oc2cc(O)cc(O)c12 [Myricetin]: 27
O=c1c(-c2ccc(O)cc2)coc2cc(O)cc(O)c12 [Genistein]: 57
C[C@@H]1O[C@@H](OC[C@H]2O[C@@H](Oc3c(-c4ccc(O)c(O)c4)oc4cc(O)cc(O)c4c3=O)[C@H](O)[C@@H](O)[C@@H]2O)[C@H](O)[C@H](O)[C@H]1O [Rutin]: 98

Here is another compound to look at.
What value of Int. GSH % con. has been recorded for this entry: COc1ccc(-c2coc3cc(O)cc(O)c3c2=O)cc1 [Biochanin A]
20

---

Provide the reported LDH release, % of control at 50 µM of each item.
System: HL-60 cells
Experiment: Cytotoxicity as LDH release in HL-60 cells
Assay type: cell-based, human
Conditions: Homo sapiens; HL-60, 50 μM, 48 hours treatment; read-out: LDH rel. % con.
One number for each entry, in %.

Solved entries:
O=c1cc(-c2ccccc2)oc2ccccc12 [Flavone, flavone]: 116
O=c1cc(-c2ccccc2)oc2cc(O)c(O)c(O)c12 [Baicalein, 5,6,7 trihydroxyflavone]: 129
Oc1ccc(C=Cc2cc(O)cc(O)c2)cc1 [Resveratrol]: 143

For every listed record, write down its LDH release, % of control at 50 µM.
1. O=c1c(O)c(-c2ccccc2)oc2cc(O)cc(O)c12 [Galangin, 3,5,7 trihydroxyflavone]
2. O=C1CC(c2ccc(O)cc2)Oc2cc(O)cc(O)c21 (stereo not shown) [Naringenin, 4′,5,7-trihydroxyflavanone]
3. O=C(/C=C/c1ccccc1)c1ccccc1 [Chalcone]
4. Oc1cc(O)c2cc(O)c(-c3ccc(O)c(O)c3)[o+]c2c1 [Cyanidin]

[114, 95, 236, 110]

For every listed record, write down its LDH release, % of control at 50 µM.
1. Oc1cc(O)c2c(c1)O[C@H](c1ccc(O)c(O)c1)[C@H](O)C2 [Epicatechin, (−)-epicatechin]
2. O=c1cc(-c2ccccc2)oc2cc(O)ccc12 [7-HF, 7-Hydroxyflavone]
3. O=C(/C=C/c1ccccc1)c1ccccc1O [2′-HC, 2′-hydroxychalcone]
4. O=c1cc(-c2ccccc2)oc2cc(O)cc(O)c12 [Chrysin, 5,7 dihydroxyflavone]
5. O=c1c(O)c(-c2ccc(O)cc2O)oc2cc(O)cc(O)c12 [Morin]
6. O=c1c(O)c(-c2ccc(O)c(O)c2)oc2cc(O)ccc12 [Fisetin]

1. 76
2. 113
3. 320
4. 195
5. 97
6. 166

---

Test system: PC-3 cells
Experiment: Intracellular GSH levels by HPLC-EC in PC-3 cells
Format: cell-based, human
Details: PC-3, 25 μM, 24 hours treatment
measuredQuantity: Int. GSH % con. (% con.)
Give bare numbers, in % con..

Solved entries:
O=C(/C=C/c1ccccc1)c1cc(O)ccc1O [2′,5′-DHC, 2′ 5′ dihydroxychalcone]: 67
C[C@]12CC[C@@H]3c4cc(O)c(O)cc4CC[C@H]3[C@@H]1CC[C@@H]2O [2-HE, 2-hydroxyestradiol, reference compound]: 228
O=c1c(-c2ccc(O)cc2)coc2cc(O)cc(O)c12: 81

Here is another compound to look at.
What value of Int. GSH % con. has been recorded for this entry: C[C@]12CC[C@@H]3c4ccc(O)cc4CC[C@H]3[C@@H]1CC[C@@H]2O [β-Estradiol, β-estradiol, reference compound]
98

---

Test system: A549 cells
Experiment: Intracellular GSH levels by HPLC-EC in A549 cells
Format: cell-based, human
Conditions: A549, 25 μM, 4 h
Provide the reported Intracellular GSH levels, % compared to control of each item.

Solved entries:
O=C(/C=C/c1ccccc1)c1ccc(O)cc1O [2′,4′-DHC, 2′ 4′ dihydroxychalcone]: <5%
O=C(/C=C/c1ccccc1)c1cc(O)ccc1O [2′,5′-DHC, 2′ 5′ dihydroxychalcone]: <5%

What value of Intracellular GSH levels, % compared to control has been recorded for this entry: O=C(/C=C/c1ccccc1O)c1ccccc1O [2′,2-DHC, 2′ 2 dihydroxychalcone]
<5%
